target: Serine/threonine-protein phosphatase 5 (Homo sapiens) (UniProt P53041); assay: PP5c phosphohistone dephosphorylation blockade – biochemical, radiolabel, round 5, powder samples, orthogonal assay for PP5 inhibitor project, late-stage follow-up (AID 624435); details: purified PP5c, 33P-phosphohistone dephosphorylation, scintillation; at 50 µM; stronger effect = higher value
Sequence (P53041 whole entry, looked up): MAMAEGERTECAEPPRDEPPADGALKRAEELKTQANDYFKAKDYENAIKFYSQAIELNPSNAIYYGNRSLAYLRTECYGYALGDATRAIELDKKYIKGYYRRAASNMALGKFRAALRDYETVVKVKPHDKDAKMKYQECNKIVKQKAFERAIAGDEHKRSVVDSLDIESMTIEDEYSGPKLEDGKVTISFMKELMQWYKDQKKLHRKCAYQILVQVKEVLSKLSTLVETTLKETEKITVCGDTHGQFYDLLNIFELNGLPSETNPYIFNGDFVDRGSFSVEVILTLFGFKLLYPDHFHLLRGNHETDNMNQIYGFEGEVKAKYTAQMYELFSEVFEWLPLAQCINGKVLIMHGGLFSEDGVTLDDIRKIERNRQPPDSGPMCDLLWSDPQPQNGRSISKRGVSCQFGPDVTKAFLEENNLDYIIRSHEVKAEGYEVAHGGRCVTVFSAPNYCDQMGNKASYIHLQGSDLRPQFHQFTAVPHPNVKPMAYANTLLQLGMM
Reported inhibition values follow for various compounds

| smilesNotation | inhibition / % |
| --- | --- |
| CC(C)Oc1ccccc1-c1n[nH]nc1C(=O)O | 67.5 |
| O=C(O)c1n[nH]c2ccccc12 | -1.07 |
| O=C(O)c1cc(-c2ccccc2)ncn1 | -6.61 |
| O=C(O)c1nn(Cc2ccccc2)nc1Cl | 0.71 |
| CCc1ccccc1-c1n[nH]nc1C(=O)O | 44.3 |
| O=C(O)c1c[nH]cc1-c1ccccc1 | -2.04 |
| Cc1onc(C(=O)O)c1Cn1cccn1 | -2.66 |
| O=C(O)c1ncn[nH]1 | 2.61 |
| O=C(O)c1n[nH]nc1-c1ccccn1 | 31.5 |
| O=C(O)c1nc2ncccn2n1 | -1.84 |
| O=C(O)c1ccccc1-c1ccccc1 | -5.88 |
| O=C(O)c1cnn2ccccc12 | -5.1 |
| O=C(O)c1cn(Cc2ccccc2)nn1 | -4.42 |
| Cc1cccc(-n2cnc(C(=O)O)c2)c1 | 2.84 |
| Cc1scc(C(=O)O)c1-c1ccccc1 | -4.13 |
| Cc1n[nH]nc1C(=O)O | -4.84 |
| CC(C)c1ccccc1-c1n[nH]nc1C(=O)O | 30.2 |
| O=C(O)c1nc(-n2cccc2)n[nH]1 | -1.61 |
| O=C(O)c1ccccc1-c1nn[nH]n1 | 0.116 |
| O=C(O)Cn1nnc2ccccc21 | 0.388 |
| O=C(O)c1n[nH]nc1-c1cccnc1 | 2.2 |

* * *

target: Serine/threonine-protein phosphatase 5 (Homo sapiens); assay: PP5c phosphohistone dephosphorylation blockade – biochemical, radiolabel, round 5, powder samples, orthogonal assay for PP5 inhibitor project, late-stage follow-up (AID 624435); conditions: purified PP5c, 33P-phosphohistone dephosphorylation, scintillation; at 50 µM; stronger effect = higher value
inhibition: recorded values

| smilesNotation | assayTarget | inhibition (%) |
| --- | --- | --- |
| Cc1cccc(-c2noc(C)c2C(=O)O)c1 | Serine/threonine-protein phosphatase 5 (Homo sapiens) | -5.14 |
| O=C(O)c1cc2cccnc2[nH]1 | Serine/threonine-protein phosphatase 5 (Homo sapiens) | -2.5 |
| O=C(O)c1c(-c2ccccc2)nnc2ccccc12 | Serine/threonine-protein phosphatase 5 (Homo sapiens) | -0.78 |
| O=C(O)c1cccn1-c1ccccc1 | Serine/threonine-protein phosphatase 5 (Homo sapiens) | -3.17 |
| COC(=O)c1n[nH]nc1-c1ccccc1 | Serine/threonine-protein phosphatase 5 (Homo sapiens) | 1.67 |
| O=C(O)c1cc(-c2ccccc2)n[nH]1 | Serine/threonine-protein phosphatase 5 (Homo sapiens) | -4.55 |
| O=C(O)c1cn[nH]n1 | Serine/threonine-protein phosphatase 5 (Homo sapiens) | -0.0127 |
| O=C(O)c1n[nH]nc1-c1ccccc1-c1ccccc1 | Serine/threonine-protein phosphatase 5 (Homo sapiens) | 41.2 |
| Cc1ccccc1-c1n[nH]nc1C(=O)O | Serine/threonine-protein phosphatase 5 (Homo sapiens) | 39 |
| O=C(O)c1cc2ccccn2n1 | Serine/threonine-protein phosphatase 5 (Homo sapiens) | -0.0487 |
| O=C(O)c1ccccc1-n1cccc1 | Serine/threonine-protein phosphatase 5 (Homo sapiens) | -7.51 |
| O=C(O)c1nnn(-c2ccccc2)c1-c1ccccc1 | Serine/threonine-protein phosphatase 5 (Homo sapiens) | 0.733 |
| O=C(O)c1cn[nH]c1-c1ccccc1 | Serine/threonine-protein phosphatase 5 (Homo sapiens) | -5.7 |
| O=C(O)c1csc(Nc2ccccc2)n1 | Serine/threonine-protein phosphatase 5 (Homo sapiens) | -0.948 |
| O=C(O)CCn1nnc2ccccc21 | Serine/threonine-protein phosphatase 5 (Homo sapiens) | 0.241 |
